Target or system: T1, human Proprotein Convertase Subtilisin-like/Kexin type 9 (human, UniProt Q8NBP7 31-692, limits assumed)
T1 construct: Biotinylated in the ELISAs; unlabelled analyte in BLI and SPR; also called human PCSK9; PCSK9
T1 sequence (Q8NBP7 31-692 limits assumed): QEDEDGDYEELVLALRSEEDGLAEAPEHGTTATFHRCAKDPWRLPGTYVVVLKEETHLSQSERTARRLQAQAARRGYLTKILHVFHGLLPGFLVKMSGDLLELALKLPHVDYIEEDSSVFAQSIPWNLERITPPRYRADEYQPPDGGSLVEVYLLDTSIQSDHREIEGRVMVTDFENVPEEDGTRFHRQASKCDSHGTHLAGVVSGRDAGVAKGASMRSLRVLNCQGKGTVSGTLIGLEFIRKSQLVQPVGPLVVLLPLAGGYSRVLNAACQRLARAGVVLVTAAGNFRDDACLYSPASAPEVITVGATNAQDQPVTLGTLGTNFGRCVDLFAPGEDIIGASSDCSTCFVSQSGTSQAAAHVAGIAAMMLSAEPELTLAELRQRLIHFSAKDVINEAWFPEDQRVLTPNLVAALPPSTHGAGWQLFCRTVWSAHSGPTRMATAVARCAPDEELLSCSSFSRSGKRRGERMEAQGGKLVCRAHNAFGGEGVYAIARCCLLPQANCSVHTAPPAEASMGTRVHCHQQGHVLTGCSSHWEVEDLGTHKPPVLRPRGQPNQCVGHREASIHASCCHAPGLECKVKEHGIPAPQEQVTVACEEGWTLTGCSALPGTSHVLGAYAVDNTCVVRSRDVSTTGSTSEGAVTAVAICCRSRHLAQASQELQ
Protocol description: BLI (Octet QK), biotinylated antibody on streptavidin sensors, human PCSK9 in solution, 1:1 fit
The entries below come with measured log10(koff) values attached.
Scale: log10; quantity: koff; unit before log: s⁻¹

Here are 3 binders together with their reported answers.
[
  {
    "Binder": "Ab9 (antibody, human IgG1, kappa, N297A, V domains shown, also called antibody Ab9) VH: QSVEESGGRLVTPGTPLTLTCTVSGIDLSSYAMGWVRQAPGKGLEYIGIIVSYGPTYYASWAKGRFTISKTSTTVDLKITSPTAEDTATYFCARDLDANSSGYYGCFNIWGQGTLVTVSS VL: AVVLTQTPASVSAAVGGTVTIKCQASQSISTALAWYQQKPGQPPKLLIYAASPLASGVSSRFKSSGSGTEFTLTISDLECADAATYYCQSYYGSSNIAFGGGTELEILR",
    "log10(koff)": -4.31
  },
  {
    "Binder": "Ab20 (antibody, human IgG1, kappa, N297A, V domains shown, also called antibody Ab20) VH: EVQLVESGGGLVQPGGSLRLSCAASGIDLSSYAMGWVRQAPGKGLEYIGIIVSYGPTYYASWAKGRFTISRDNSKSTVYLQMNSLRAEDTATYFCARDLDAQSSGYYGAFNIWGQGTLVTVSS VL: DIQMTQSPSTLSASVGDRVTITCQASQSISTALAWYQQKPGKAPKLLIYAASPLASGVPSRFSGSGSGTEFTLTISSLQPDDFATYYCQSYYGSSNIAFGGGTKVEIKR",
    "log10(koff)": -4.18
  },
  {
    "Binder": "Ab15 (antibody, human IgG1, kappa, N297A, V domains shown, also called antibody Ab15) VH: QEQLEESGGDLVKPEGSLTLTCTASGFSFSSSYWICWVRQAPGKGLEWIACIDAGNSGSTYYASWAKGRFTISKASSTTVTLQMTSLTAADTATYFCASDLNDGWLGQFNLWGPGTLVTVSS VL: NIVMTQTPSPVSGAVGGTVTIKCQASQSISDYLAWYQQKPGQPPKLLIYRASTLASGVPSRFRGSGSGTEYTLTITDLECADAATYYCQSYYSVTTNTYGNTFGGGTEVVVKR",
    "log10(koff)": -4.24
  }
]

*Q* Give a short answer stating reported log10(koff) for Ab3 (antibody, human IgG1, kappa, N297A, V domains shown, also called antibody Ab3) VH: QSVEESGGRLVTPGGSLTLTCTASGFSLSSYYMSWVRQAPGKGLEWIGIIYPSGSTYYASWAKGRFTISKTSTTVDLKITSPTVEDTATYFCARGGAYATLNLWGPGTLVTVSS VL: AVLTQTPSPVSAAVGGTVTISCQSSQSVYHNNLLSWYQQKPGQPPKLLIYDASKLTSGVSSRFSGSGSGTQFTLTISGVQCDDAATYYCLGGYDDDADNGFGGGTEVVVKR .
*A* -3.26

*Q* Give a short answer stating reported log10(koff) for Ab4 (antibody, human IgG1, kappa, N297A, V domains shown, also called antibody Ab4) VH: QSVEESGGRLVTPGTPLTLTCTVSGIDLSSYAMIWVRQAPEKGLEYIGYIGGIDSTYYASWAKGRFTISKTSTTVDLKMTSPTTEDTATYFCGRWSGTSGYNTIWGPGTLVTVSS VL: DVVMTQTPASVEAAVGGTVTIKCQASQSIYSNLAWYQQKPGQPPKLLIYGASNLASGVSSRFKGSRSGTEYTLTISDLECADAATYYCQCTGGGDSGNTFGGGTEVVVKR .
*A* -3.37

*Q* Give a short answer stating reported log10(koff) for Ab5 (antibody, human IgG1, kappa, N297A, V domains shown, also called antibody Ab5) VH: QSVEESGGRLVTPGTPLTLTCTVSGFSLSSYAMSWVRQAPGKGLEWIGIISNSGTTYYASWAKGRFTISKTSTTVDLKITSPTTEDTATYFCARGIYWYWRVFNLWGPGTLVTVSS VL: AVLTQTPSPVSAAVGGTVTINCQASQSVYNNLLSWYQQKPGQPPKLLIYDASNLASGVPDRFSGSGSGTQFTLTISGVQCDDAATYYCLGGYDDDADNAFGGGTEVVVKR .
*A* -3.56

*Q* Give a short answer stating reported log10(koff) for Ab16 (antibody, human IgG1, kappa, N297A, V domains shown, also called antibody Ab16) VH: QEQLVESGGGLVQPEGSLTLTCTASGFSFSSDYWICWVRQAPGKGLEWIGCIRDGGGSYYANWAKGRLTISMTSSTTVGLKMTSLTAADTATYFCASDINDGWLGQFNLWGPGTLVTVSS VL: DIVMTQTPASVEAAVGGTVTIKCQASQSISSYLAWYQQKPGQPPKLLIYRASTLASGVPSRFSGSGSGTEFTLTISDLECADAATYYCQSYYSVTTVTYGNTFGGGTEVVVKR .
*A* -4.00

*Q* Give a short answer stating reported log10(koff) for Ab13 (antibody, human IgG1, kappa, N297A, V domains shown, also called antibody Ab13) VH: QSVEESGGRLVTPGTPLTLTCTVSGIDLSTYGVGWVRQAPGKGLEYIGIISSSGSTYYASWAKGRFTISKTSSTTVDLKMTSLTTEDTATYFCARDWSSTTGYYGYFNMWGPGTLVTVSS VL: AFELTQTPSPVSAAVGGTVTIKCQASQSISTALAWYQQKPGQPPKLLIYGASNLESGVPSRFSGSGSGTQFTLTISDLECADAAIYYCQSSYGSSTLAFGGGTEVVVKR .
*A* -3.45

*Q* Give a short answer stating reported log10(koff) for Ab1 (antibody, human IgG1, kappa, N297A, V domains shown, also called antibody Ab1) VH: QSVEESGGRLVTPGTPLTLTCTVSGFSLSSYWMTWVRQAPGKGLEYIGIISSSGSTYYATWAKGRFTISKTSSTTVDLEITSPTTEDTATYFCARDSAFSSGLEFNIWGPGTLVTVSS VL: AYDLTQTPASVEVAVGGTVTIKCQASQSVYSNWLSWYQQKPGQPPKLLIYDASDLASGVPSRFKGSGSGTQFTLTISGVQCDDAATYYCQQGQSSSDIDNTFGGGTEVVVKR .
*A* -2.89

*Q* Give a short answer stating reported log10(koff) for Ab19 (antibody, human IgG1, kappa, N297A, V domains shown, also called antibody Ab19) VH: EVQLVESGGGLVQPGGSLRLSCAASGIDLSSYAMGWVRQAPGKGLEYIGIIVSYGPTYYASWAKGRFTISRDNSKNTVYLQMNSLRAEDTATYFCARDLDAQSSGYYGAFNIWGQGTLVTVSS VL: DIQMTQSPSTLSASVGDRVTITCQASQSISTALAWYQQKPGKAPKLLIYAASPLASGVPSRFSGSGSGTEFTLTISSLQPDDFATYYCQSYYGSSNIAFGGGTKVEIKR .
*A* -3.94

*Q* Give a short answer stating reported log10(koff) for Ab10 (antibody, human IgG1, kappa, N297A, V domains shown, also called antibody Ab10) VH: QEQLEESGGDLVKPEGSLTLTCTASGFSFSSSYWICWVRQAPGKGLEWIACIRAGGGNYYANWAKGRFTISRTSSTTVTLQMTSLTAADTATYFCASDINDGWLGQFNLWGPGTLVTVSS VL: NIVMTQTPASVEAAVGGTVTIKCQASQSISNYLAWYQQKPGQPPKLLIYRTSTLASGVPSRFKGSGSGTQFTLTISDLECADAATYYCQSYYSVTTVAYGNTFGGGTEVVVKR .
*A* -4.29
